- target_or_test_system: UniProt:Q8NER1
- method: Functional assay: block of capsaicin-induced Ca2+ influx, human assay (hTRPV1/HEK293, FLIPR)
- condition_parameters: hTRPV1/HEK293 cells, 150 nM capsaicin challenge, Fluo-3 fluorescence; mean; > value = solubility limit in assay medium
quantity_kind: IC50

Reference set (2 entries):
structure | result
Cc1cccnc1Nc1nc2c(Nc3ccc(C(F)(F)F)cc3)ncnc2s1 | ≥ 6.67 µM
Cc1cc(C(F)(F)F)ccc1Nc1ncnc2sc(Nc3c(C)cccc3C)nc12 | > 2.22 µM

Lab entry: UniProt:Q8NER1 assay, molecule Cc1cccc(C)c1Nc1nc2c(NCc3ccc(Cl)c(Cl)c3)ncnc2s1 , IC50 = > 6.67 µM

Cc1cccc(C)c1Nc1nc2c(Nc3ccc(NS(C)(=O)=O)cc3)ncnc2s1 on UniProt:Q8NER1 gives IC50 = > 20 µM

###

- target_or_test_system: rat TRPV1 (Rattus norvegicus, UniProt O35433)
- Sequence (O35433 whole entry): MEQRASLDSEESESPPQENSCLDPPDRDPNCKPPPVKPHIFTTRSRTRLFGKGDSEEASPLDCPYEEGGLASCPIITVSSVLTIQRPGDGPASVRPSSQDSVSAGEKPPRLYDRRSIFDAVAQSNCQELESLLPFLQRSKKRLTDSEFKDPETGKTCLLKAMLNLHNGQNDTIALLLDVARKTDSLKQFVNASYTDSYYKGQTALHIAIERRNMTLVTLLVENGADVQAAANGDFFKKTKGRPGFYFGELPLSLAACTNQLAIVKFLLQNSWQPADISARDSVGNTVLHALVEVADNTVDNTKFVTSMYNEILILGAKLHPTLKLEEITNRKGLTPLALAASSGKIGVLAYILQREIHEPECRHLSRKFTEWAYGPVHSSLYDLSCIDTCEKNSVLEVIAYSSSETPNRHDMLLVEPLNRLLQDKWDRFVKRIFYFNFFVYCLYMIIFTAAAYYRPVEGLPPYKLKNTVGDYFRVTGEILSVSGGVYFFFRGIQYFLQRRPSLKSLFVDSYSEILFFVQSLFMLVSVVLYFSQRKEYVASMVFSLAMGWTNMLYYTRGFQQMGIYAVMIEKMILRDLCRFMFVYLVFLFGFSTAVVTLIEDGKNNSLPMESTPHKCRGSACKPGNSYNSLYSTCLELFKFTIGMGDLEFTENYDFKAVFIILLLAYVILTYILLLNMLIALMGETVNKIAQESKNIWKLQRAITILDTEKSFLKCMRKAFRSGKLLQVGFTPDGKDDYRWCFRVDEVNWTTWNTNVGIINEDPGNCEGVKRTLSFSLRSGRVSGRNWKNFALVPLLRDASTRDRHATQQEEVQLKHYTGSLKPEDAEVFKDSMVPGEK
- method: Functional assay: block of capsaicin-induced Ca2+ influx, rat assay (rTRPV1/HEK293, FLIPR)
- condition_parameters: rTRPV1/HEK293 cells, capsaicin challenge, Fluo-3 fluorescence; mean; > value = solubility limit in assay medium
Reported IC50 values follow for various compounds
Report the figure along with its unit, number first.

Consider the reported IC50 for these compounds:
structure | IC50
CN(C)S(=O)(=O)c1ccc(Nc2ncnc3sc(Nc4ccccc4Cl)nc23)cc1 | 17 nM
Cc1nc(Nc2ccc(OC(F)(F)F)cc2)c2nc(Nc3c(Cl)cccc3Cl)sc2n1 | 16 nM
Cc1nc(Nc2ccc(C(F)(F)F)cc2)c2nc(Nc3ccccc3[N+](=O)[O-])sc2n1 | 1710 nM
Cc1nc(Nc2ccc(C(C)(C)C)cc2)c2nc(Nc3c(Cl)cccc3Cl)sc2n1 | 1 nM
CN(C)CCN(C)c1nc(Nc2ccc(C(F)(F)F)cc2)c2nc(Nc3c(Cl)cccc3Cl)sc2n1 | 1820 nM

// next entry
GET /value?item= CS(=O)(=O)c1ccc(Nc2ncnc3sc(Nc4c(Cl)cccc4Cl)nc23)cc1 &field=IC50 returns 4 nM

###

- target_or_test_system: rat TRPV1 (Rattus norvegicus, UniProt O35433)
- method: Functional assay: block of capsaicin-induced Ca2+ influx, rat assay (rTRPV1/HEK293, FLIPR)
- condition_parameters: rTRPV1/HEK293 cells, capsaicin challenge, Fluo-3 fluorescence; mean; > value = solubility limit in assay medium
Criterion: IC50 strictly less than 80 nM. Met: label 1. Not met: label 0.

structure | cat
FC(F)(F)c1ccc(Nc2ncnc3sc(Nc4ccccc4C(F)(F)F)nc23)cn1 | label 1

*Q* Just wondering, is IC50 of FC(F)(F)c1ccc(Nc2nc(N3CCCC3)nc3sc(Nc4c(Cl)cccc4Cl)nc23)cc1 below 80 nM?
*A* label 1

*Q* Given the entry Cc1nc(Nc2ccc(S(=O)(=O)N(C)C)cc2)c2nc(Nc3c(Cl)cccc3Cl)sc2n1 , would its reported IC50 be below 80 nM?
*A* label 1

*Q* Decide: IC50 of FC(F)(F)c1ccc(Nc2ncnc3sc(NC4CCCCC4)nc23)cc1 strictly below 80 nM?
*A* label 0

*Q* Hello, is IC50 of the following molecule strictly smaller than 80 nM? O=C(O)c1cc(Cl)c(Nc2nc3c(Nc4ccc(C(F)(F)F)cc4)ncnc3s2)c(Cl)c1
*A* label 0

*Q* Quick check: does Cc1ccc(Nc2ncnc3sc(Nc4c(C)cccc4C)nc23)cc1F have IC50 under 80 nM?
*A* label 0

*Q* Strictly below 80 nM: is that where IC50 of Cc1nc(Nc2ccc(C(F)(F)F)cc2)c2nc(Nc3ccccc3S(C)(=O)=O)sc2n1 sits?
*A* label 0

*Q* Take the molecule Cc1cccc(C)c1Nc1nc2c(NCc3ccccc3)ncnc2s1 and say whether its IC50 is less than 80 nM.
*A* label 0

###

- target_or_test_system: rat TRPV1 (Rattus norvegicus)
- method: Functional assay: block of capsaicin-induced Ca2+ influx, rat assay (rTRPV1/HEK293, FLIPR)
- condition_parameters: rTRPV1/HEK293 cells, capsaicin challenge, Fluo-3 fluorescence; mean; > value = solubility limit in assay medium
quantity_kind: IC50 (nM)
Give the number; nM is assumed, so skip it.

Recorded results for 8 molecules are shown here.
molecule | IC50 (nM)
Cc1cccc(C)c1Nc1nc2c(Nc3ccc(S(=O)(=O)N4CCCC4)cc3)ncnc2s1 | 7
Cc1cccc(Cl)c1Nc1nc2c(Nc3ccc(C(F)(F)F)nc3)ncnc2s1 | 5
CS(=O)(=O)c1ccc(Nc2ncnc3sc(Nc4ccccc4Cl)nc23)cc1 | 30
Cc1nc(Nc2ccc3c(c2)N(C)CCC3)c2nc(Nc3c(Cl)cccc3Cl)sc2n1 | 78
Fc1cc(Nc2ncnc3sc(Nc4c(Cl)cccc4Cl)nc23)ccc1C(F)(F)F | 8
Cc1nc(Nc2ccc(C(F)(F)F)nc2)c2nc(Nc3c(Cl)cccc3Cl)sc2n1 | 1
Clc1cccc(Cl)c1Nc1nc2c(Nc3ccccc3)ncnc2s1 | 226
O=S(=O)(c1ccc(Nc2ncnc3sc(Nc4ccccc4Cl)nc23)cc1)C(F)(F)F | 76

Consider Cc1cccc(C)c1Nc1nc2c(Nc3ccc(C#N)cc3)ncnc2s1 . Its measured IC50 is 33

IC50 in this record for CN1CCN(S(=O)(=O)c2ccc(Nc3ncnc4sc(Nc5c(Cl)cccc5Cl)nc34)cc2)CC1 : 4

Recorded result, Cc1cccc(C)c1Nc1nc2c(Nc3ccc(OC(F)(F)F)cc3)ncnc2s1 , IC50: 39

molecule CC(C)N1CCN(c2nc(Nc3ccc(C(F)(F)F)cc3)c3nc(Nc4c(Cl)cccc4Cl)sc3n2)CC1 , IC50 observed: 154

IC50 reading for Cc1noc(C)c1Nc1nc2c(Nc3ccc(C(F)(F)F)nc3)ncnc2s1 : 709

Cc1nc(Nc2cccnc2)c2nc(Nc3c(C)cccc3C)sc2n1 has a reported IC50 of 5320

The molecule listed as Cc1cccc(C)c1Nc1nc2c(Nc3ccc4c(c3)OCCO4)ncnc2s1 has a reported IC50 of 204

For this molecule ( CC(C)CNc1nc(Nc2ccc(C(F)(F)F)cc2)c2nc(Nc3c(Cl)cccc3Cl)sc2n1 ), measured IC50 is 1

###

- target_or_test_system: human TRPV1 (Homo sapiens, UniProt Q8NER1)
- Sequence (Q8NER1 whole entry): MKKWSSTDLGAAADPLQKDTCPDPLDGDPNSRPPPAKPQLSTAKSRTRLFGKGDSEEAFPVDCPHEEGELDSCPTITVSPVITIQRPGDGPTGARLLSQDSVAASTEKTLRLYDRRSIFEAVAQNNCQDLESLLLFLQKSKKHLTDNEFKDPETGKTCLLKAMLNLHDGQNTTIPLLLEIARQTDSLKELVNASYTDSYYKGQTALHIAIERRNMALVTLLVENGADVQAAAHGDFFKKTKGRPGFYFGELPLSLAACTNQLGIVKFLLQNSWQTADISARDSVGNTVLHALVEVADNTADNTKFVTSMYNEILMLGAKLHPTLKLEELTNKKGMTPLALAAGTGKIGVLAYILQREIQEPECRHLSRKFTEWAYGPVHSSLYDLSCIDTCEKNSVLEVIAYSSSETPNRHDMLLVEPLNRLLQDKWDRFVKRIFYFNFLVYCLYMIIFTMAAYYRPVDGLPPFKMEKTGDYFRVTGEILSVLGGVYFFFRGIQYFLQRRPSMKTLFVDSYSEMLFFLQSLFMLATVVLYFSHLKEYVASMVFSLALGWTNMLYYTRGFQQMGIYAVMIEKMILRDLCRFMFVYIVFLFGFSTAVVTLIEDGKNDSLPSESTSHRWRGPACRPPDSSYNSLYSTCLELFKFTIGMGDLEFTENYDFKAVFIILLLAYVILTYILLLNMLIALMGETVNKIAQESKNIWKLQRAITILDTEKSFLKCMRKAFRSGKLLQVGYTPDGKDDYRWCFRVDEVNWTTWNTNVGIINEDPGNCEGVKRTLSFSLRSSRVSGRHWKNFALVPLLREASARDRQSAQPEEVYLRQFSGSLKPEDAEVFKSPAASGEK
- method: Functional assay: block of capsaicin-induced Ca2+ influx, human assay (hTRPV1/HEK293, FLIPR)
- condition_parameters: hTRPV1/HEK293 cells, 150 nM capsaicin challenge, Fluo-3 fluorescence; mean; > value = solubility limit in assay medium
# strict inequality: IC50 < 300 nM yields y, everything else yields n

*Q* # strict comparison: is reported IC50 < 300 nM? input = FC(F)(F)c1ccc(Nc2ncnc3sc(NC4CCCCC4)nc23)cc1
*A* n

###

- target_or_test_system: human TRPV1 (Homo sapiens, UniProt Q8NER1)
- method: Functional assay: block of capsaicin-induced Ca2+ influx, human assay (hTRPV1/HEK293, FLIPR)
- condition_parameters: hTRPV1/HEK293 cells, 150 nM capsaicin challenge, Fluo-3 fluorescence; mean; > value = solubility limit in assay medium
- Experimental: Functional assay: block of capsaicin-induced Ca^2+ influx HEK293 cells were transfected with human TRPV1 cloned in pcDNA3.1zeo(+) using the Effectene non-liposomal lipid based transfection kit (Qiagen) (hTRPV1/HEK293). hTRPV1/HEK293 cells were routinely grown as monolayers under selection in zeocin (200 μg/mL; Invitrogen) in Dulbecco's Modified Eagle Medium (DMEM, Gibco BRL) supplemented with 10% fetal bovine serum, and penicillin/streptomycin (50 units/mL) in 5% CO2 at 37° C. […]
quantity_kind: IC50 (nM)
Numeric only. Scale: nM

Observe how each entry below is paired with its result.
compound | measurement_unit | IC50
CSc1ccccc1Nc1nc2c(Nc3ccc(C(F)(F)F)cc3)ncnc2s1 [Example 196] | nM | 64
Cc1cccc(C)c1Nc1nc2c(Nc3ccc(I)cc3)ncnc2s1 [Example 137] | nM | 225
COC[C@H]1CCCN1c1nc(Nc2ccc(C(F)(F)F)cc2)c2nc(Nc3c(Cl)cccc3Cl)sc2n1 [Example 194] | nM | 133

CN(C)c1nc(Nc2ccc(C(F)(F)F)cc2)c2nc(Nc3c(Cl)cccc3Cl)sc2n1 [Example 56] has a reported IC50 of 32

Looking up Cc1nc(Nc2ccc(C(F)(F)F)c(Cl)c2)c2nc(Nc3c(C)cccc3C)sc2n1 [Example 247] , I see its IC50 listed as 35

// field: IC50; key: O=C(O)c1cc(Cl)c(Nc2nc3c(Nc4ccc(C(F)(F)F)cc4)ncnc3s2)c(Cl)c1 [Example 243] ; value = 4610

The reported value for CSc1ccc(Nc2nc(C)nc3sc(Nc4c(C)cccc4C)nc23)cc1 [Example 114] in terms of IC50 is 39

###

- target_or_test_system: rat TRPV1 (Rattus norvegicus)
- method: Functional assay: block of capsaicin-induced Ca2+ influx, rat assay (rTRPV1/HEK293, FLIPR)
- condition_parameters: rTRPV1/HEK293 cells, capsaicin challenge, Fluo-3 fluorescence; mean; > value = solubility limit in assay medium
We begin with a simple list: items and their reported IC50.

Known results for compounds:
structure | IC50
Cc1nc(Nc2ccc(C(F)(F)F)cc2)c2nc(Nc3ccccc3Cl)sc2n1 | 0.058 µM
Oc1ccc(Nc2ncnc3sc(Nc4c(Cl)cccc4Cl)nc23)cc1O | > 6.67 µM
N#Cc1cc(Cl)c(Nc2nc3c(Nc4ccc(C(F)(F)F)cc4)ncnc3s2)c(Cl)c1 | 0.068 µM

Summary for this compound, Cc1cccnc1Nc1nc2c(Nc3ccc(C(F)(F)F)cc3)ncnc2s1 : IC50 is ≥ 6.67 µM
